test system: Euphorbia hetrophylla (EPHHL); assay: B2 Post-Emergence Efficacy - Test 2; type: in vivo; conditions: 15 g/Ha, 15 days after application, 0-100 scale
Output t for Herbicidal activity EPHHL not less than 70; output f otherwise.

Observe how each entry below is paired with its result.
INSERT INTO measurements (compound, tested_target, group_label) VALUES
  ('Cc1nn(C)c(=O)c(-c2c(F)ccc(Cl)c2CCc2ccc(C(F)(F)F)nc2)c1O [Compound 1.042]', 'Euphorbia hetrophylla (EPHHL)', 't'),
  ('Cc1nn(C)c(=O)c(-c2c(F)ccc(Cl)c2CCc2ccc(F)cc2)c1O [Compound 1.048]', 'Euphorbia hetrophylla (EPHHL)', 'f'),
  ('Cc1nn(C)c(=O)c(-c2c(F)ccc(Cl)c2CCc2ccc(F)cc2)c1OC(=O)C(C)C [Compound 1.125]', 'Euphorbia hetrophylla (EPHHL)', 't'),
  ('Cc1nn(C)c(=O)c(-c2c(F)ccc(Cl)c2CCc2ccccc2C(F)(F)F)c1O [Compound 1.066]', 'Euphorbia hetrophylla (EPHHL)', 'f');

Req: For this compound, is measured Herbicidal activity EPHHL 70 or higher? Cc1nn(C)c(=O)c(-c2c(F)ccc(Cl)c2CCc2ccc(Cl)cc2)c1OC(=O)C(C)C [Compound 1.089]
Resp: t
